System: MDA-N
ASSAY NOTES: NCI tumour cell line growth inhibition, 48 h
The source made the active and inactive calls. Rule as the data show it: active = GI50 up to about 1.1 µM and inactive = higher.
Just give me one of these, please: active, inactive

{"COMPOUND": "C(=C\\C(SCc1ccccc1)SCc1ccccc1)/c1ccccc1", "QUALITATIVE LABEL": "inactive"}
{"COMPOUND": "COc1ccc2c3c([nH]c2c1)-c1nc2ccccc2c(=O)n1CC3", "QUALITATIVE LABEL": "inactive"}
{"COMPOUND": "O=C(CC(O)(C(F)(F)F)C(F)(F)F)C(c1ccccc1)C(O)(C(F)(F)F)C(F)(F)F (stereo not drawn)", "QUALITATIVE LABEL": "inactive"}
{"COMPOUND": "N#Cc1c2c(c(Nc3ccc(F)cc3)n3c1nc1ccccc13)CCCC2", "QUALITATIVE LABEL": "inactive"}
{"COMPOUND": "CC(=O)NNc1nc(C)c(C(/C=C/c2ccc([N+](=O)[O-])cc2)=N/NC(N)=S)s1", "QUALITATIVE LABEL": "inactive"}
{"COMPOUND": "O=C1NC2NC3NC(=O)NC3NC2N1 (stereo not drawn)", "QUALITATIVE LABEL": "inactive"}
{"COMPOUND": "CC(C)(C)CNCCCNc1ccc(Cl)cc1", "QUALITATIVE LABEL": "inactive"}
{"COMPOUND": "NCc1ccc(-c2ccc(-c3ccc(-c4ccc(CN)s4)s3)s2)s1", "QUALITATIVE LABEL": "inactive"}

Q: Please state the recorded outcome for this compound: BrC(Br)=C1C(=C(Br)Br)C(Br)C1Br (stereo not drawn)
A: active

Q: Please give the result for S=C1C=C(c2ccccc2)Sc2ccccc2N1 too.
A: inactive

Q: Please give the result for COC(=O)C1=C(C(=O)OC)C2(/N=C(\Nc3ccccc3)c3ccccc3)N(c3ccc(OC)cc3)CC(c3ccccc3)N2O1 (stereo not drawn) too.
A: inactive

Cited source for all entries: ChEMBL document CHEMBL1201862
